- System: Rh18 complex spheroid viability, percent test/control
- protocol: Anticancer human tumor Rh18 cell line growth inhibition [Asc];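 also: spheroids exposed to compound for 7 days; 100% = DMSO vehicle control wells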
- experimental-conditions: second compound 0.316 µM; first compound 0.00949 µM; active compounds read low
observed-property: viability, T/C

Solved cases below.
compound | observed-property | result
Cc1nc(N2CCC3(CC2)COC(C)C3N)c(CO)nc1Sc1ccnc(N)c1Cl (stereo not drawn) + CNC(C)C(=O)NC1CN(S(=O)(=O)c2cccc(S(=O)(=O)N3CCC4CCC(C(=O)NC(c5ccccc5)c5ccccc5)N4C(=O)C(NC(=O)C(C)NC)C3)c2)CCC2CCC(C(=O)NC(c3ccccc3)c3ccccc3)N2C1=O | viability, T/C | 45.9%
CCN1C(C(=O)NC23CCC(C(=O)O)(CC2)CC3)C(c2cccc(Cl)c2F)C2(C(=O)Nc3cc(Cl)ccc32)C12CCCCC2 (stereo not drawn) + CNC(C)C(=O)NC1CN(S(=O)(=O)c2cccc(S(=O)(=O)N3CCC4CCC(C(=O)NC(c5ccccc5)c5ccccc5)N4C(=O)C(NC(=O)C(C)NC)C3)c2)CCC2CCC(C(=O)NC(c3ccccc3)c3ccccc3)N2C1=O | viability, T/C | 21%

Continue with the compound presented below.
Exercise: Answer with viability, T/C of NC(=O)C(=Cn1cnc(-c2cc(C(F)(F)F)cc(C(F)(F)F)c2)n1)c1cncnc1 + Cc1c(S(C)(=O)=O)c(-c2cc(F)cc(N3CCN(c4ccc(NS(=O)(=O)c5ccc(NC(CCN6CCC(C(=O)OCCCP(=O)(O)O)CC6)CSc6ccccc6)c(S(=O)(=O)C(F)(F)F)c5)cc4)CC3)c2)c(-c2ccc(Cl)cc2)n1C(C)C measured for Rh18 complex spheroid viability, percent test/control.
Solution: 10.8%
